system.tested: PERK (Rattus norvegicus)
Sequence (Q9Z1Z1 28-1108): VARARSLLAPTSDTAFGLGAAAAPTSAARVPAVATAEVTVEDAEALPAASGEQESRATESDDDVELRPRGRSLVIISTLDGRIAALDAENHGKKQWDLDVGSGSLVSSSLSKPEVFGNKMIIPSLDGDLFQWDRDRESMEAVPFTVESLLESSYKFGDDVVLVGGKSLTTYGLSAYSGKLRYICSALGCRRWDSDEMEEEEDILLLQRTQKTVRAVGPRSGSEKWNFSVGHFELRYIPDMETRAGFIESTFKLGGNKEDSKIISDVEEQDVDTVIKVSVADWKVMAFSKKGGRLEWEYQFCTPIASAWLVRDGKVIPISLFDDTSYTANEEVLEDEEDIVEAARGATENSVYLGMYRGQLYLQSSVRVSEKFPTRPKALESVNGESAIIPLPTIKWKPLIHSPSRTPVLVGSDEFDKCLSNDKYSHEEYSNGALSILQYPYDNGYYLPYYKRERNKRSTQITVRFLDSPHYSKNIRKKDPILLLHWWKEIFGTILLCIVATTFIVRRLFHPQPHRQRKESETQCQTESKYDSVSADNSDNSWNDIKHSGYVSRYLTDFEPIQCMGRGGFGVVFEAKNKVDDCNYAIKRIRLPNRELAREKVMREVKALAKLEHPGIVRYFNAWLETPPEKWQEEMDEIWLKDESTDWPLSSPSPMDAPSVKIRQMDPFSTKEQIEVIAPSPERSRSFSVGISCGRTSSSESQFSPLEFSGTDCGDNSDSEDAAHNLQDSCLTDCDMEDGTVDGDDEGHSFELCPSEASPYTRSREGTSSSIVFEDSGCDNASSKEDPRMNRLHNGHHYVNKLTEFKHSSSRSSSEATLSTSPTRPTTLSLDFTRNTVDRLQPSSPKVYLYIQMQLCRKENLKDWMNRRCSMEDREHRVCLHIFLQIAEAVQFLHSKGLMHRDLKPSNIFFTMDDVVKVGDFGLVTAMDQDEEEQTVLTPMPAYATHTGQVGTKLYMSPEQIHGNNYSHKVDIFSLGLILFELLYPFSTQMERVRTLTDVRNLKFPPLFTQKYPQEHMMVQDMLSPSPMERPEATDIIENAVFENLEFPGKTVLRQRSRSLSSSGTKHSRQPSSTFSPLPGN
experiment: Inhibition of PERK autophosphorylation
pIC50: −log10 of the molar value.
assay.endpoint: pIC50

-- ask Item `Cc1cccc(CC(=O)N2CCc3c2ccc(-c2cn(C)c4ncnc(N)c24)c3F)n1` has what recorded pIC50?
-- reply ~6.90

----------
system.tested: UniProt:A0A4Y1YQ52
Sequence (A0A4Y1YQ52 21-977): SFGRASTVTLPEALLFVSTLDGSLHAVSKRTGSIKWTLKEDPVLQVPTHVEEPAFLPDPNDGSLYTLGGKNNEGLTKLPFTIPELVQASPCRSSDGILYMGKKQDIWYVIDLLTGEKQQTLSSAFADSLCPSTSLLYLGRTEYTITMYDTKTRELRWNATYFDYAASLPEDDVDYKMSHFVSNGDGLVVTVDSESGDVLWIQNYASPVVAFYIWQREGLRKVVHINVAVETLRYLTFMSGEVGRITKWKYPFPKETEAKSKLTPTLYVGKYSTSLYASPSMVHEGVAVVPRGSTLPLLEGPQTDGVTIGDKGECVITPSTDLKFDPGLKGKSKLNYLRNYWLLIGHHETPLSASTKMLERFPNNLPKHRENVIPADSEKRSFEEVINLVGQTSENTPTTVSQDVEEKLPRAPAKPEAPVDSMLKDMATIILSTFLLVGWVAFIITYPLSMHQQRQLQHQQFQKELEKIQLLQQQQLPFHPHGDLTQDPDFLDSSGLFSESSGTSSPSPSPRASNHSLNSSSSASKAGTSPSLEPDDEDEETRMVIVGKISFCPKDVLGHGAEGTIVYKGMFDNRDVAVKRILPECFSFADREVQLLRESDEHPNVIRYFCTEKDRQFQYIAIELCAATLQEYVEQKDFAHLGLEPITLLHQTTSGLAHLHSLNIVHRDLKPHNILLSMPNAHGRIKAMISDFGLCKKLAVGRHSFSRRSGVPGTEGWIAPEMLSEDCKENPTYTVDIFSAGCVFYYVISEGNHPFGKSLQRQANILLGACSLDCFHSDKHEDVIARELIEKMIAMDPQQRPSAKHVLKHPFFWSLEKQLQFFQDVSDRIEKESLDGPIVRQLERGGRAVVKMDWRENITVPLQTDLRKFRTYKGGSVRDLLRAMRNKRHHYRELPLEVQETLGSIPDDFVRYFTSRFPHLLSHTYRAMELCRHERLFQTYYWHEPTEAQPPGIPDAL
experiment: Inhibition of IRE1α RNase output
pIC50: −log10 of the molar value.
assay.endpoint: pIC50

-- ask Reported pIC50, compound Cc1ccc2c(NS(=O)(=O)c3ccccc3Cl)cccc2c1Oc1ncccc1-c1ccnc(N[C@H]2CCCNC2)n1 [KIRA8] : ____
-- reply ~6.90
